- TARGET ENTITY: Left-right determination factor 2 (Homo sapiens) (UniProt O00292)
- Sequence (O00292 whole entry, looked up): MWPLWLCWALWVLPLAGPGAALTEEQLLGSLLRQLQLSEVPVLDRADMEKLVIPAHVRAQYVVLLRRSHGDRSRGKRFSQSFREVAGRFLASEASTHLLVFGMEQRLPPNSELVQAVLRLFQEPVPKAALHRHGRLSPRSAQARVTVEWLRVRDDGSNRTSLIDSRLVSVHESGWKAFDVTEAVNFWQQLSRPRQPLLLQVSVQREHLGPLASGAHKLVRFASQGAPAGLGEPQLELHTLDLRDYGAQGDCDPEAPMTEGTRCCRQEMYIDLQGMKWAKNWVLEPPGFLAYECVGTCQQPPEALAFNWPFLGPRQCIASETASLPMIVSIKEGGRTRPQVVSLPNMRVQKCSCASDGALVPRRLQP
- METHOD SUMMARY: LEFTY2 binders on small-molecule microarrays, primary screen, biochemical, small-molecule microarray, 635 nm fluorescence scan (AID 1110)
- COND: LEFTY2 binding, higher = more signal
Quick rule: composite z-score of at least 0.2 means t, below that means f.

[[record]]
compound = "COc1cc2c(cc1OC)CN(C(=O)[C@@H]1[C@H]3C(=O)O[C@H](c4ccccc4)[C@H](c4ccccc4)N3[C@H](c3ccc(OCCO)cc3)[C@@]13C(=O)Nc1ccc(C#CC4(O)CCCCCC4)cc13)CC2"
qualitative_label = "t"

[[record]]
compound = "COc1ccc(C#Cc2ccc3c(c2)[C@]2(C(=O)N3)[C@H](c3ccc(O)cc3)N3[C@H](c4ccccc4)[C@H](c4ccccc4)OC(=O)[C@H]3[C@@H]2C(=O)O)cc1"
qualitative_label = "f"

[[record]]
compound = "COc1ccc([Si](C)(C)[C@@H]2[C@@H](CCO)O[C@]3(C(=O)N(Cc4ccc(N5CCCCC5=O)cc4)c4ccccc43)[C@H]2C)cc1"
qualitative_label = "t"

[[record]]
compound = "COCCCNC(=O)[C@@]1(Cc2ccccc2CN=[N+]=[N-])N=C(c2ccc(OCCCO)cc2)O[C@H]1c1ccccc1"
qualitative_label = "f"

[[record]]
compound = "CCOC(=O)C1=CC[C@@H](c2ccc(OCc3ccccc3)c(OC)c2)N(S(=O)(=O)c2ccc(C)cc2)[C@H]1c1ccc(SC)cc1"
qualitative_label = "t"

[[record]]
compound = "O=C1NC(=O)C2C1C=CC(C(O)c1c(F)cccc1Cl)N2Nc1ccc(Cl)cc1Cl (centres undefined)"
qualitative_label = "f"

[[record]]
compound = "C=CCC(OC(C)=O)[C@@H]1[C@@H](N(Cc2cc3ccccc3o2)C(=O)c2ccc(C)cc2)c2cc(OCCCO)ccc2N1C(=O)Cc1ccc(OC)cc1 (some centres undefined)"
qualitative_label = "f"

[[record]]
compound = "CN(C)C(=O)[C@@]1(Cc2ccccc2CN=[N+]=[N-])N=C(c2ccc(OCCCO)cc2)O[C@H]1c1ccccc1CN=[N+]=[N-]"
qualitative_label = "f"

[[record]]
compound = "O=C1O[C@H](c2ccccc2)[C@H](c2ccccc2)N2[C@H]1[C@@H](C(=O)N1CCN(c3ncccn3)CC1)[C@]1(C(=O)Nc3ccc(C#CC4(O)CCCCCC4)cc31)[C@H]2c1ccc(OCCO)cc1"
qualitative_label = "t"

[[record]]
compound = "O=C(NCc1ccccc1)[C@@H]1c2ccccc2C(=O)N(Cc2ccccc2C(F)(F)F)[C@H]1c1ccc(CO)cc1"
qualitative_label = "f"

[[record]]
compound = "COc1ccc(NC(=O)O[C@H]2[C@H](OC(=O)Nc3ccccc3)[C@H](OC(=O)Nc3ccccc3)[C@@H](OC)O[C@@H]2CO)cc1"
qualitative_label = "t"

[[record]]
compound = "COc1ccc([Si](C)(C)[C@H]2[C@H](CCO)O[C@@]3(C(=O)N(Cc4cccc(N5C(=O)COc6ccccc65)c4)c4ccccc43)[C@@H]2C)cc1"
qualitative_label = "f"

[[record]]
compound = "COc1ccccc1CN1C(=O)c2ccccc2[C@](Cc2ccccc2I)(C(=O)NCC(F)(F)F)[C@@H]1c1ccc(CO)cc1"
qualitative_label = "f"

[[record]]
compound = "C=C(COC)/C(=C/C[C@H](OC(=O)c1ccncc1)c1ccccc1OCCO)c1cnc2ccccc2c1"
qualitative_label = "t"


* * *

Measured composite z-score values are reported for all entries that follow.
- TARGET ENTITY: Fibroblast growth factor 2 (Homo sapiens) (UniProt P09038)
- Sequence (P09038 whole entry, looked up): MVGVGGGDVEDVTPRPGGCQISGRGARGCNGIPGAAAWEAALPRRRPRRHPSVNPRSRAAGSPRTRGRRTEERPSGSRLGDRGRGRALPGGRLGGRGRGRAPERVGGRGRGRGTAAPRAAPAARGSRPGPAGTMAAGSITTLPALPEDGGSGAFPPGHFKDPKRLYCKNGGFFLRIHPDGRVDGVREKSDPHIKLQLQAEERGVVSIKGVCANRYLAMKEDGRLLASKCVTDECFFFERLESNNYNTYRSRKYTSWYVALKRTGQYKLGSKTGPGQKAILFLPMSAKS
- METHOD SUMMARY: FGF2 binders on small-molecule microarrays, primary screen, biochemical, small-molecule microarray, 635/667 nm fluorescence (AID 1133)
- COND: small-molecule microarray binding, FGF2, fluorescence 635/667; higher = more signal
MEASURE NAME: composite z-score

[[record]]
compound = "COC(=O)c1c(CC[C@@H](CO)NC(=O)N[C@H](Cn2cc(C3(O)CCCCC3)nn2)C(C)C)oc(C(C)=O)c1C(=O)OC"
measure_name = "composite z-score"
assay_result = 1.26

[[record]]
compound = "CCOC(=O)C[C@H]1[C@H](OC(=O)c2ccccc2-c2ccccc2)[C@@H](NC(=O)c2ccc(-c3ccccc3)cc2)c2cc(OCCCO)ccc2N1C(=O)c1ccc2ccccc2n1"
measure_name = "composite z-score"
assay_result = 0.496

[[record]]
compound = "Cc1cc(C)cc(N2C(=O)CSC2c2cccc([N+](=O)[O-])c2)c1 (configuration not stated)"
measure_name = "composite z-score"
assay_result = 0.963

[[record]]
compound = "CCOC(=O)C[C@H]1[C@H](OC(=O)Cc2ccc3c(c2)OCO3)[C@@H](NC(=O)Cc2ccc(OC)cc2)c2cc(OCCCO)ccc2N1C(=O)c1ccc2ccccc2n1"
measure_name = "composite z-score"
assay_result = 0.211

[[record]]
compound = "CC(C)(C)OC(=O)CC[C@]1(C(=O)NCC(O)CO)N=C(c2ccc(OCCCO)cc2)O[C@H]1c1ccccc1 (some centres not stated)"
measure_name = "composite z-score"
assay_result = -0.494

[[record]]
compound = "CCOC(=O)C[C@H]1[C@H](OC(=O)Cc2ccc3c(c2)OCO3)[C@@H](NC(=O)CC(C)C)c2cc(OCCCO)ccc2N1C(=O)Cc1ccc(OC)cc1"
measure_name = "composite z-score"
assay_result = 0.11

[[record]]
compound = "CC=CC(O)C1C=CC2C(=O)N(c3ccccc3)C(=O)C2N1Nc1ccccc1F (configuration not stated)"
measure_name = "composite z-score"
assay_result = -0.189


* * *

- TARGET ENTITY: Streptavidin (Streptomyces avidinii)
- METHOD SUMMARY: streptavidin binders on small-molecule microarray, primary screen, artefact control for SMM compound annotation, biophysical, 635/667 nm fluorescence (AID 1147);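 further: signal reflects streptavidin binding to arrayed compounds as a control protein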
- COND: streptavidin binding, higher = more signal
Label rule, in plain words: composite z-score of -0.004 and up is condition met, under -0.004 is condition not met.

[[record]]
compound = "COc1ccc([Si](C)(C)[C@H]2[C@H](CCO)O[C@@]3(C(=O)N(Cc4cccc(N5C(=O)COc6ccccc65)c4)c4ccccc43)[C@@H]2C)cc1"
target_entity = "Streptavidin (Streptomyces avidinii)"
qualitative_label = "condition met"

[[record]]
compound = "C=C(COC)/C(=C/C[C@H](OC(C)=O)c1ccc(OCCO)cc1)c1cc(C(=O)OC)ccc1OC"
target_entity = "Streptavidin (Streptomyces avidinii)"
qualitative_label = "condition not met"

[[record]]
compound = "NC(=O)N1C(=O)C2C(C1=O)C1C=C(CCCO)C2C(c2cccs2)N1Cc1cccc(OC(F)(F)F)c1 (stereo not drawn)"
target_entity = "Streptavidin (Streptomyces avidinii)"
qualitative_label = "condition met"

[[record]]
compound = "CC(c1ccccc1)C(O)C1C=CC2C(=O)N(c3ccccc3)C(=O)C2N1Nc1ccc([N+](=O)[O-])cc1 (stereo not drawn)"
target_entity = "Streptavidin (Streptomyces avidinii)"
qualitative_label = "condition met"

[[record]]
compound = "CC(C)(C)OC(=O)CC[C@]1(C(=O)NCc2ccccc2)N=C(c2ccc(OCCCO)cc2)O[C@H]1c1ccccc1CN=[N+]=[N-]"
target_entity = "Streptavidin (Streptomyces avidinii)"
qualitative_label = "condition met"

[[record]]
compound = "C=CCC(OC(C)=O)[C@@H]1[C@@H](N(Cc2cccc3ccccc23)C(=O)c2cccc3ccccc23)c2cc(OCCCO)ccc2N1C(=O)c1ccc(-c2ccccc2)cc1 (stereo partly drawn)"
target_entity = "Streptavidin (Streptomyces avidinii)"
qualitative_label = "condition met"

[[record]]
compound = "COC(=O)[C@@]1(Cc2ccc(OC)cc2)[C@H]2c3cc(C(=O)N(C)C)n(Cc4ccc(Cl)c(C(F)(F)F)c4)c3C[C@H]2CN1C(=O)c1ccccc1"
target_entity = "Streptavidin (Streptomyces avidinii)"
qualitative_label = "condition met"

[[record]]
compound = "[N-]=[N+]=NCc1ccccc1[C@@H]1OC(c2ccc(OCCCO)cc2)=N[C@]1(CCS(=O)(=O)c1ccccc1)C(=O)NCC(O)CO (stereo partly drawn)"
target_entity = "Streptavidin (Streptomyces avidinii)"
qualitative_label = "condition met"

[[record]]
compound = "COc1ccc(NC(=O)O[C@H]2[C@H](OC(=O)Nc3ccccc3)[C@H](OC(=O)Nc3ccccc3)[C@@H](OC)O[C@@H]2CO)cc1"
target_entity = "Streptavidin (Streptomyces avidinii)"
qualitative_label = "condition met"

[[record]]
compound = "CCCNC(=O)[C@@]1(c2ccc([N+](=O)[O-])cc2)CC(=O)N(C2CCCCC2)[C@@H]1c1ccc(CO)cc1"
target_entity = "Streptavidin (Streptomyces avidinii)"
qualitative_label = "condition met"

[[record]]
compound = "CCCC[C@@H]1C[C@H]1[C@@H](NC(=O)c1cccs1)c1ccc(C(F)(F)F)cc1"
target_entity = "Streptavidin (Streptomyces avidinii)"
qualitative_label = "condition met"

[[record]]
compound = "CN1C(=O)C2C=CC(C(O)c3cccc4ccccc34)N(N3CCCCC3)C2C1=O (stereo not drawn)"
target_entity = "Streptavidin (Streptomyces avidinii)"
qualitative_label = "condition met"

[[record]]
compound = "O=C(N1CCCCC1)[C@@]1(CCS(=O)(=O)c2ccccc2)COC(c2ccc(OCCCO)cc2)=N1"
target_entity = "Streptavidin (Streptomyces avidinii)"
qualitative_label = "condition met"

[[record]]
compound = "O=C(CS)NCCCCCCNC(=O)[C@H]1C[C@H]2C(=O)N[C@@H](Cc3ccccc3)C(=O)N2[C@H]1c1ccc(O)cc1"
target_entity = "Streptavidin (Streptomyces avidinii)"
qualitative_label = "condition not met"

[[record]]
compound = "CCOC(=O)C[C@H]1[C@H](OC(=O)c2ccc(C(=O)c3ccccc3)cc2)[C@@H](NC(=O)Cc2ccc(OC)cc2)c2cc(OCCCO)ccc2N1C(=O)c1ccccc1"
target_entity = "Streptavidin (Streptomyces avidinii)"
qualitative_label = "condition met"

[[record]]
compound = "CC(C)OC(=O)C=C1C[C@@H](c2ccc(C(F)(F)F)cc2)O[C@@H](c2ccc(C(F)(F)F)cc2)O1"
target_entity = "Streptavidin (Streptomyces avidinii)"
qualitative_label = "condition not met"

[[record]]
compound = "CCOC(=O)c1ccc(NC(=O)O[C@H]2[C@H](OC(=O)Nc3ccc4c(c3)OCO4)[C@@H](OC(=O)Nc3ccc4c(c3)OCO4)[C@@H](OC)O[C@@H]2CO)cc1"
target_entity = "Streptavidin (Streptomyces avidinii)"
qualitative_label = "condition met"

[[record]]
compound = "COC(=O)c1c2oc(c1C(=O)OC)C(=O)N(C)Cc1cn(nn1)C[C@H](Cc1ccccc1)NC(=O)N[C@H](CO)CC2"
target_entity = "Streptavidin (Streptomyces avidinii)"
qualitative_label = "condition not met"

[[record]]
compound = "CO[C@H]1O[C@H](CO)[C@@H](OC(=O)Nc2ccc3c(c2)OCO3)[C@H](OC(=O)c2cc3ccccc3[nH]2)[C@H]1OC(=O)c1cc2ccccc2[nH]1"
target_entity = "Streptavidin (Streptomyces avidinii)"
qualitative_label = "condition met"

[[record]]
compound = "C=CCN1C(=O)[C@@]2(O[C@@H](CCn3cc([C@H](O)c4ccccc4)nn3)[C@H]([Si](C)(C)c3ccc(OC)cc3)[C@H]2C)c2cc(N3CCC3=O)ccc21"
target_entity = "Streptavidin (Streptomyces avidinii)"
qualitative_label = "condition not met"

[[record]]
compound = "COc1ccc([Si](C)(C)[C@H]2[C@H](CC(=O)N(CCO)Cc3ccccc3)O[C@@]3(C(=O)N(Cc4cccc(N5CCOC5=O)c4)c4ccccc43)[C@@H]2C)cc1"
target_entity = "Streptavidin (Streptomyces avidinii)"
qualitative_label = "condition met"

[[record]]
compound = "O=C1C2C=CC(C(O)c3ccc(F)cc3)N(n3cnnc3)C2C(=O)N1Cc1ccccc1 (stereo not drawn)"
target_entity = "Streptavidin (Streptomyces avidinii)"
qualitative_label = "condition not met"

[[record]]
compound = "COCCOC(=O)N1C(=O)[C@@]2(c3cc(C#CCCO)ccc31)[C@H](c1ccccc1OCCO)N1[C@H](c3ccccc3)[C@H](c3ccccc3)OC(=O)[C@H]1[C@@H]2C(=O)Nc1nc2ccccc2s1"
target_entity = "Streptavidin (Streptomyces avidinii)"
qualitative_label = "condition met"

[[record]]
compound = "C=C[C@@H](OC)[C@H](OC(=O)Nc1ccc(SC)cc1)c1ccc(O)c(F)c1"
target_entity = "Streptavidin (Streptomyces avidinii)"
qualitative_label = "condition not met"

[[record]]
compound = "COc1ccc([Si](C)(C)[C@@H]2[C@@H](CC(=O)N3Cc4ccccc4C[C@H]3CO)O[C@]3(C(=O)N(C)c4ccccc43)[C@H]2C)cc1"
target_entity = "Streptavidin (Streptomyces avidinii)"
qualitative_label = "condition met"

[[record]]
compound = "O=C1O[C@@H](c2ccccc2)[C@@H](c2ccccc2)N2[C@@H](c3ccc(O)cc3)[C@]3(C(=O)Nc4ccc(C#CC5(O)CCCCCC5)cc43)[C@@H](C(=O)NC[C@H](O)c3ccccc3)[C@H]12"
target_entity = "Streptavidin (Streptomyces avidinii)"
qualitative_label = "condition not met"

[[record]]
compound = "COC(=O)[C@@]1(Cc2ccccc2)[C@@H]2C(=CC(=O)[C@H]2CC(=O)C(=O)N(C)C)CN1C(=O)c1ccccc1"
target_entity = "Streptavidin (Streptomyces avidinii)"
qualitative_label = "condition not met"

[[record]]
compound = "CCC(CC)C(O)C1C=CC2C(=O)N(c3ccccc3)C(=O)C2N1Nc1ccc(C(C)C)cc1 (stereo not drawn)"
target_entity = "Streptavidin (Streptomyces avidinii)"
qualitative_label = "condition met"

